measure-name: melting point

COc1ccc(CCC(=O)C2CCC3C4CCc5cc(C(=O)O)ccc5C4CCC23C)cc1 (stereo not given)    178 to 179 °C

Item: CCn1cc(C(=O)O)c(=O)c2cc(F)c(N3CC4CCCC3CN4C)c(F)c21 (stereo not given) | melting point: > 300 °C

Item: CCOC(=O)c1cnc2ncnn2c1Cl | melting point: 130 to 132 °C

Item: CCOC(=O)c1nccn1Cc1ccc(Cl)cc1[N+](=O)[O-] | melting point: 105 to 107 °C

Item: CC(=O)NC[C@H]1CN(c2ccc(C(=O)c3cnc4ccc([N+](=O)[O-])cn34)cc2)C(=O)O1 | melting point: 223 to 225 °C

Item: O=C(NCCc1ccc(O)c(O)c1)C12CC3CC(CC(C3)C1)C2 | melting point: 198 to 200 °C

Item: CCCc1c2c(c(OC)c3c(=O)cc(C(=O)OC)oc13)CCCC2 | melting point: 92 to 93 °C

Item: O=C1COc2ccc(C3=CN=C(c4ccccc4)SC3c3ccccc3)cc2N1 (stereo not given) | melting point: 231 to 233 °C

Item: O=C1CCN(Cc2ccccn2)CC1C(c1ccccc1)c1ccccc1 (stereo not given) | melting point: 100 °C

Item: CCCC(SCC(=O)O)c1ccc2c(c1)OCO2 (stereo not given) | melting point: 59 to 61 °C
